assay: gradient 5% acetonitrile 3 min, to 50% in 2 min, to 85% in 15 min, held 3 min, 100 µL/min; settings: column: Zorbax Extend-C18 2.1 x 50 mm; eluents: water / acetonitrile, 0.1% formic acid
Assign a class from recorded RP-LC retention time; defined classes: bottom end (below 700 s), midrange (700 s to below 800 s), top end (800 s or more)

For orientation, consider the following solved cases.
molecule: O=C(Cn1cccc(-c2nc(-c3ccc(Cl)cc3)no2)c1=O)Nc1ccc(F)cc1F
class_name: top end
//
molecule: CC(=O)NCC(=O)N1CCCn2cc(-c3ccc4c(c3)OCO4)nc21
class_name: bottom end
//
molecule: COC(=O)C1=CN(C2CC2)c2cc(N3CCC(C)CC3)c(F)cc2S1(=O)=O
class_name: top end
//
molecule: CC(C)c1noc(C2Cc3ccccc3N2C(=O)NC2CCCC2)n1 (stereo not given)
class_name: bottom end
//
molecule: CC(C)NC(=O)N1CCC(c2nc(C(C)C)cs2)CC1
class_name: midrange

Query: Please classify: CCOc1ccc(CNC(=O)C2CCCN(c3ccc(=O)n(-c4ccc(CC)cc4)n3)C2)cc1 (stereo not given)
Result: top end

Query: Please classify: Fc1ccc(-c2ccc(CNCC3CCCO3)o2)cc1 (stereo not given)
Result: bottom end

Query: Please classify: CC(C)c1nnc(-c2coc(S(=O)(=O)N3CCN(C4CCCCC4)CC3)c2)o1
Result: bottom end

Query: Please classify: CN1C(=O)C2CCCCN2c2ccc(C(=O)N3CCN(c4cccc(Cl)c4)CC3)cc21 (stereo not given)
Result: top end

Query: Please classify: CC(C)CN1C(=O)c2cccn2CC1C(=O)NCC1CC1 (stereo not given)
Result: midrange

Query: Please classify: Cc1ccc(CS(=O)Cc2ccc(C(=O)NCCN(C)C)o2)cc1 (stereo not given)
Result: bottom end

Query: Please classify: CCOc1ccc(NC(=O)Cn2nc3cc(C)nc(N4CCCC4)n3c2=O)cc1
Result: midrange
